Each recorded value in this set is attributed to ChEMBL document CHEMBL3868615.

# key: entry, value: log10(Ki)
- Test System: Sigma non-opioid intracellular receptor 1 (Cavia porcellus, UniProt Q60492)
- Sequence (Q60492 whole entry): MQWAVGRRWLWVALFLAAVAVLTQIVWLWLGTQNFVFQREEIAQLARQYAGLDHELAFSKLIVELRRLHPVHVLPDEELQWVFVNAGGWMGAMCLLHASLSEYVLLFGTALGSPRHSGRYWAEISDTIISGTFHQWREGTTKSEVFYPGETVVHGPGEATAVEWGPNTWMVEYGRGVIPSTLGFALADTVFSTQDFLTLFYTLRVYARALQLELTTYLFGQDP
- Test Description: Displacement of [3H]pentazocine from guinea pig sigma1 receptor measured after 90 mins by microbeta scintillation counting method
Value Type: log10(Ki) (log10 of the value in µM)

| Structure Notation | Experimental Value |
| --- | --- |
| COc1ccc(C[C@H]2C(=O)C[C@@H]3CCN(CC4CCCCC4)[C@@H]4CCC[C@H]2[C@@H]34)cc1 | -2.00 |
| CCCCCCCN1CC[C@H]2CC(=O)[C@H](CC)[C@H]3CCC[C@@H]1[C@H]23 | -2.70 |
| CC[C@H]1c2nc3ccccc3cc2[C@@H]2CCN(C)[C@@H]3CCC[C@H]1[C@H]32 | -0.72 |
| COc1ccc(C[C@H]2C(=O)C[C@@H]3CCN(C)[C@@H]4CCC[C@H]2[C@@H]34)cc1 | -2.30 |
| CCCN1CC[C@H]2CC(=O)C[C@H]3CCC[C@@H]1[C@@H]32 | -0.90 |
| CCCN1CC[C@H]2CC3=Nc4ccccc4[C@]3(CC)[C@H]3CCC[C@@H]1[C@H]23 | -2.15 |
| CCCN1CC[C@@H]2CC(=O)C[C@H]3CCC[C@H]1[C@H]32 | -0.46 |
